# maps each entry to its viability, T/C
System: 186277-243-T-J2-PDC complex spheroid viability
Assay: Anticancer human tumor 186277-243-T-J2-PDC patient-derived colon adenocarcinoma cell line growth inhibition
Settings: second compound 1 µM; first compound 0.316 µM; hits give low values
Write the value in % as a bare number.

Check out these entries, answers already filled in.
State its viability, T/C for this molecule: COc1cc(Nc2ncc3c(n2)-c2ccc(Cl)cc2C(c2c(F)cccc2OC)=NC3)ccc1C(=O)O + NC1CC1c1ccc(-c2cccc(O)c2)cc1
131

State its viability, T/C for this molecule: Nc1ncn(C2CC(O)C(CO)O2)c(=O)n1 (centres undefined) + NC1CCC(NC2CC2c2ccccc2)CC1
127

Others:
State its viability, T/C for this molecule: O=C(C=Cn1cnc(-c2cc(C(F)(F)F)cc(C(F)(F)F)c2)n1)NNc1cnccn1 + NC1CC1c1ccc(-c2cccc(O)c2)cc1
3.14

State its viability, T/C for this molecule: O=C(C=Cn1cnc(-c2cc(C(F)(F)F)cc(C(F)(F)F)c2)n1)NNc1cnccn1 + NC1CCC(NC2CC2c2ccccc2)CC1
3.96

---

# maps each entry to its viability, T/C
System: 186277-243-T-J2-PDC complex spheroid viability
Test: Anticancer human tumor 186277-243-T-J2-PDC cell line growth inhibition;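 note: 7 day exposure to compounds; 100% = DMSO vehicle control viability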
Settings: second compound 0.316 µM; first compound 0.949 µM; hits give low values

State its viability, T/C for this compound: NS(=O)(=O)OCC1CC(n2ccc3c(NC4CCc5ccccc54)ncnc32)CC1O (centres undefined) + NC1CCC(NC2CC2c2ccccc2)CC1
29.6%

State its viability, T/C for this compound: Nc1ccccc1NC(=O)c1ccc(CNC(=O)OCc2cccnc2)cc1 + NC1CCC(NC2CC2c2ccccc2)CC1
68.7%

Others:
State its viability, T/C for this compound: Nc1ccccc1NC(=O)c1ccc(CNC(=O)OCc2cccnc2)cc1 + NC1CC1c1ccc(-c2cccc(O)c2)cc1
15.4%

State its viability, T/C for this compound: O=C(C=Cc1cccc(S(=O)(=O)Nc2ccccc2)c1)NO + NC1CCC(NC2CC2c2ccccc2)CC1
15.7%

---

Tested on: 186277-243-T-J2-PDC complex spheroid viability
Assay: Anticancer human tumor 186277-243-T-J2-PDC cell line growth inhibition; active = viability on the fitted dose curve at most 10% of control; inactive = the rest;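 note: 7 day exposure to compounds; 100% = DMSO vehicle control viability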
Conditions: second compound 0.1 µM; first compound 1 µM
Description: Multicellular complex tumor spheroid response to LSD1 Inhibitor Iadademstat in combination with a variety of drugs and investigational agents in selected tumor cell lines The current study was undertaken to assess response to LSD1 inhibitors in combination with standard-of-care drugs and investigational agents in solid tumor complex spheroid models as well as in the K-562 leukemia. […] Compounds. […] If the clinical Cmax for an agent had not been determined, the highest concentration tested was 10 microM. […]
Mark one answer only. Choices: active, inactive

The following compounds have reported results that may help.
Tell me the recorded outcome of this test for Nc1ncn(C2CC(O)C(CO)O2)c(=O)n1 (stereo not drawn) + NC1CCC(NC2CC2c2ccccc2)CC1 .
inactive

Tell me the recorded outcome of this test for CC(C)c1c(-c2ccccc2)nc2c(C#N)c[nH]n2c1=O + NC1CC1c1ccc(-c2cccc(O)c2)cc1 .
inactive

Tell me the recorded outcome of this test for COc1cc(Nc2ncc3c(n2)-c2ccc(Cl)cc2C(c2c(F)cccc2OC)=NC3)ccc1C(=O)O + NC1CCC(NC2CC2c2ccccc2)CC1 .
active

Tell me the recorded outcome of this test for COc1ccc([C@@H](O)c2cc(-c3ncnc4cc(N5CCOCC5)ccc34)c(F)cc2Cl)nn1 + NC1CCC(NC2CC2c2ccccc2)CC1 .
inactive

Tell me the recorded outcome of this test for CC1COCCN1c1cc(-c2ccnn2C)c2ccnc(-c3ccn[nH]3)c2n1 (stereo not drawn) + NC1CC1c1ccc(-c2cccc(O)c2)cc1 .
active

Others:
Tell me the recorded outcome of this test for O=C(C=Cn1cnc(-c2cc(C(F)(F)F)cc(C(F)(F)F)c2)n1)NNc1cnccn1 + NC1CCC(NC2CC2c2ccccc2)CC1 .
active

Tell me the recorded outcome of this test for O=C(C=Cn1cnc(-c2cc(C(F)(F)F)cc(C(F)(F)F)c2)n1)NNc1cnccn1 + NC1CC1c1ccc(-c2cccc(O)c2)cc1 .
active

Tell me the recorded outcome of this test for O=C(c1cc(Cc2n[nH]c(=O)c3ccccc23)ccc1F)N1CCN(C(=O)C2CC2)CC1 + NC1CC1c1ccc(-c2cccc(O)c2)cc1 .
inactive

Tell me the recorded outcome of this test for O=C(c1cc(Cc2n[nH]c(=O)c3ccccc23)ccc1F)N1CCN(C(=O)C2CC2)CC1 + NC1CCC(NC2CC2c2ccccc2)CC1 .
inactive

Tell me the recorded outcome of this test for CC(C)c1c(-c2ccccc2)nc2c(C#N)c[nH]n2c1=O + NC1CCC(NC2CC2c2ccccc2)CC1 .
inactive

Tell me the recorded outcome of this test for CC1COCCN1c1cc(-c2ccnn2C)c2ccnc(-c3ccn[nH]3)c2n1 (stereo not drawn) + NC1CCC(NC2CC2c2ccccc2)CC1 .
inactive

Tell me the recorded outcome of this test for CC1COCCN1c1cc(C2(S(C)(=N)=O)CC2)nc(-c2ccnc3[nH]ccc23)n1 (stereo not drawn) + NC1CC1c1ccc(-c2cccc(O)c2)cc1 .
inactive

Tell me the recorded outcome of this test for COc1cc(Nc2ncc3c(n2)-c2ccc(Cl)cc2C(c2c(F)cccc2OC)=NC3)ccc1C(=O)O + NC1CC1c1ccc(-c2cccc(O)c2)cc1 .
inactive

Tell me the recorded outcome of this test for COc1ccc([C@@H](O)c2cc(-c3ncnc4cc(N5CCOCC5)ccc34)c(F)cc2Cl)nn1 + NC1CC1c1ccc(-c2cccc(O)c2)cc1 .
inactive

Tell me the recorded outcome of this test for CC1COCCN1c1cc(C2(S(C)(=N)=O)CC2)nc(-c2ccnc3[nH]ccc23)n1 (stereo not drawn) + NC1CCC(NC2CC2c2ccccc2)CC1 .
inactive

Tell me the recorded outcome of this test for CC1(C)CCC(CN2CCN(c3ccc(C(=O)NS(=O)(=O)c4ccc(NCC5CCOCC5)c([N+](=O)[O-])c4)c(Oc4cnc5[nH]ccc5c4)c3)CC2)=C(c2ccc(Cl)cc2)C1 + NC1CCC(NC2CC2c2ccccc2)CC1 .
inactive

Tell me the recorded outcome of this test for CC1(C)CCC(CN2CCN(c3ccc(C(=O)NS(=O)(=O)c4ccc(NCC5CCOCC5)c([N+](=O)[O-])c4)c(Oc4cnc5[nH]ccc5c4)c3)CC2)=C(c2ccc(Cl)cc2)C1 + NC1CC1c1ccc(-c2cccc(O)c2)cc1 .
inactive

Tell me the recorded outcome of this test for Nc1ncn(C2CC(O)C(CO)O2)c(=O)n1 (stereo not drawn) + NC1CC1c1ccc(-c2cccc(O)c2)cc1 .
inactive

---

Tested on: 186277-243-T-J2-PDC complex spheroid viability
Assay: Anticancer human tumor 186277-243-T-J2-PDC cell line growth inhibition; active = viability on the fitted dose curve at most 10% of control; inactive = the rest;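 note: 7 day exposure to compounds; 100% = DMSO vehicle control viability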
Settings: second compound 10 µM; first compound 10 µM
Mark one answer only. Choices: active, inactive

Tell me the recorded outcome of this test for O=C(c1cc(Cc2n[nH]c(=O)c3ccccc23)ccc1F)N1CCN(C(=O)C2CC2)CC1 + NC1CC1c1ccc(-c2cccc(O)c2)cc1 .
inactive

Tell me the recorded outcome of this test for CC1(C)CCC(CN2CCN(c3ccc(C(=O)NS(=O)(=O)c4ccc(NCC5CCOCC5)c([N+](=O)[O-])c4)c(Oc4cnc5[nH]ccc5c4)c3)CC2)=C(c2ccc(Cl)cc2)C1 + NC1CCC(NC2CC2c2ccccc2)CC1 .
active

Turning now to a further compound:
Tell me the recorded outcome of this test for COc1ccc([C@@H](O)c2cc(-c3ncnc4cc(N5CCOCC5)ccc34)c(F)cc2Cl)nn1 + NC1CC1c1ccc(-c2cccc(O)c2)cc1 .
active

---

Test system: 186277-243-T-J2-PDC complex spheroid viability
Experiment: Anticancer human tumor 186277-243-T-J2-PDC cell line growth inhibition;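 note: 7 day exposure to compounds; 100% = DMSO vehicle control viability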
Conditions: second compound 10 µM; first compound 0.000949 µM; hits give low values
# maps each entry to its viability, T/C

Check out these entries, answers already filled in.
State its viability, T/C for this molecule: Nc1ncn(C2CC(O)C(CO)S2)c(=O)n1 (stereo unspecified) + NC1CCC(NC2CC2c2ccccc2)CC1
118%

State its viability, T/C for this molecule: Nc1ccn(C2OC(CO)C(O)C2(F)F)c(=O)n1 (stereo unspecified) + NC1CC1c1ccc(-c2cccc(O)c2)cc1
98.2%

State its viability, T/C for this molecule: CCc1c2c(nc3ccc(O)cc13)-c1cc3c(c(=O)n1C2)COC(=O)[C@]3(O)CC + NC1CCC(NC2CC2c2ccccc2)CC1
80.1%

Others:
State its viability, T/C for this molecule: Nc1ccn(C2OC(CO)C(O)C2(F)F)c(=O)n1 (stereo unspecified) + NC1CCC(NC2CC2c2ccccc2)CC1
31.3%

State its viability, T/C for this molecule: Nc1ncn(C2CC(O)C(CO)S2)c(=O)n1 (stereo unspecified) + NC1CC1c1ccc(-c2cccc(O)c2)cc1
93.8%

State its viability, T/C for this molecule: CCc1c2c(nc3ccc(O)cc13)-c1cc3c(c(=O)n1C2)COC(=O)[C@]3(O)CC + NC1CC1c1ccc(-c2cccc(O)c2)cc1
35.4%
